- System: MS2 coat protein
- protocol_details: apparent KD of MS2 coat protein; designed switch direction (-1 OFF switch, 1 ON switch): -1; higher = weaker reporter binding
- experimental_context: input ligand: microRNA oligo, concentration not stated
Reported values of apparent KD of MS2 coat protein for individual entries
observable: apparent KD of MS2 coat protein

>>> observed("UACAUGAGGAUCACCCAUGUUUUGUCGUGUAUGGUAUUUAUCUAGGAUAUCAAGUUAUGUAUUUAUGAGAAGGAGAAUAUUAAU [JMF's solution 31] (Eterna round: R96, puzzle: Exclusion NG 3)")
"35.3 nM"
>>> observed("CGGGCCGGCCUUCCGGCCGGCCCGACAUGAGGAUCACCCAUGUAGGAUAUCCCGGCUGCCGGCCGGGAGAAGGGCGUGCGUCCG [-50.4, -49.4 kcal, 14% A] (Eterna round: R96, puzzle: Exclusion NG 3)")
"87.8 nM"
>>> observed("UCACGGCUCGGAGGAUAUGACACAUGAGGAUCACCCAUGUGUGUAAGCCAAUAAACCUACAAAUGUCAGAAGGCCGCGCCUCAU [Eternabot solution 9] (Eterna round: R96, puzzle: Exclusion NG 2)")
"10.8 nM"
>>> observed("GUAUGUUCCUGAGGAUAUCGAGCCAUCGACCGCCGAGAAGGCAGAGACAUGAGGAUCACCCAUGUGAAGUAAUGGCGAUGAGAA [Eternabot solution 13] (Eterna round: R96, puzzle: Exclusion NG 1)")
"10.8 nM"
>>> observed("UAUGUCUCAGGAGGAUAUCUCCCGGUUGCCGUUAGAGAAGGCUUGAAACAUGAGGAUCACCCAUGUAAAUGGCCCGUCCUCCAA [Atsodibian] (Eterna round: R96, puzzle: Exclusion NG 1)")
"9.77 nM"

###

Listed sequences paired with reported apparent KD of K4 kissing-loop reporter
- System: K4 kissing-loop RNA reporter;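 also: bound reporter read as fluorescence of individual clusters on recovered sequencing chips by microscopy, with normalized cluster intensities fitted with a binding model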
- protocol_details: apparent KD of K4 kissing-loop reporter; higher = weaker reporter binding
- experimental_context: Eterna round: R107; input ligand: none
observable: apparent KD of K4 kissing-loop reporter (nM)

>>> observed("GUGCGCGGUGCGGCCGCCACUCGGAUGCGAGUGAUGUUCGCGGGACGGACGCAAGUCCGUCAUUCGAGGACCGGGCAUGGCUGCA [#2 Same State - Tryptophan B Attempt #6 (HarryS)]")
242
>>> observed("UUUCGUUGAAGUGAUACCAGACUUGAAAGUGAUGUUUUCCAAUAAUUUAAAUUUUUAGCUGUCCCUUGGCAGCACAGUUUAUUUA [JR_Nu_ExcTheophyB_Sub025]")
275
>>> observed("UGAUACCAGACGGCCGCCACUGGUGCAUGUCAAAGACAUGCUAACCAAAUCGUGGAGUGAUGUUCCAGGACCGGGUCUGGUAUCU [TrypBX 22 #SwitchBubble #Palindromic #StaticStem]")
217
>>> observed("ACAGGAUCGAAAGAUCCUGAGCAGUCAAACCGAGGACCGGUACGGCCGCCACUCGGAGUGAUGUUCCGAAGACUGCAAAAUAAAA [#SwitchBubble 1]")
1120
>>> observed("AAAUAGGUGUGCGAUACCAGCCGGAGUGAUGUUCCGUGUUGUACUGGCUGCACCUACGCCGGCCCUUGGCAGCGUGCUCCAUUUA [Enonin]")
169
>>> observed("AGGGUAAGGCGUUAACAUGACACCUGGGAAGGAGCGCGGUACACCGCAGGUAGGUCGCCCAGUGAUGUUGGGCGUAAGUAUGAGU [KL-XArg-A22]")
185
>>> observed("UAUAUACAUUUAUUAAUUAAAGGUUCAGAAGGAGCGUGAAUUAACACAGGUAGGUCGCUGAGCGAGUGAUGUUCGCUAUAUGGAA [JR_ExcArginiA_Sub006]")
57
>>> observed("AGUGCACUGUCAGGAUAUGUACAGUGAUGUUGUGUAUGUCAGCAAGUCAAAGACUUGCUCUUCUGUGCAGAAGGGACUGUGUACA [Omei KL FMN B Exc A v5]")
628
>>> observed("AAUUGGGACGAAGGAUAUUGUCGGCCAUGUACGAGGUCCGGAUGUCAUGACUGUUAGUGAUGUUAACAAGAAGGUCGAGGGAGAC [theeternabot_exclusion_KL_FMN_B_25]")
103
>>> observed("AACCGAGGUAAUCCACAAAGAUAACAUGAUACCAGAUAUAUAAAUAUCCCUUGGCAGCAUGGCAUGAGUGAUGUUCAUGUGUCUU [KL-SSTheo-A10]")
460
>>> observed("GUGCGCGCGGCGGCCGCCACUCGCAUGAGAGUGAUGUUCUCACCGUGACCGUAAGGUCGCGGUGUGAGGACCGGGCCGGGCUGCG [#2 Same State - Tryptophan B Attempt #24 (HarryS)]")
207
>>> observed("GGAUAGGAUAGAGGAUAUGGGCUAGGCAAGAAUAACUUGUCUAGCAAAUCCAUGAGGAGUGAUGUUCCAGAAGGCUGUCCUAUCG [FmnBX 1 U9]")
152

###

- Tested on: MS2 coat protein
- protocol_details: apparent KD of MS2 coat protein; designed switch direction (-1 OFF switch, 1 ON switch): -1; higher = weaker reporter binding
- experimental_context: Eterna round: R95; input ligand: none
Everything with apparent KD of MS2 coat protein lower than 0.04 µM is Not fulfilled; everything else, including exactly 0.04 µM, is Fulfilled.

>>> class_name("UAAUAAAGUGUGAGGAUAUGCUGGUCGAUAGAUCAGCAGAAGGCACAUGAGGAUCACCCAUGUAAUAUAUAAAU [Mat - Exclusion 4 - JL Mod - D58] (puzzle: Brourd's mod of Exclusion 4)")
"Fulfilled"
>>> class_name("GGAAAGCAAGGAUAUACAAGGAAACGAUGGAAAGUAGAGAGACAUGAGGAUCACCCAUGUAGAAGGUGCGAGAG [JR_Exclu2_Sub037] (puzzle: Exclusion 2)")
"Not fulfilled"
>>> class_name("GAGAAGGUAGGAUAUACGAAUAAAUAGGGUAGUAAUAAUACACAUGAGGAUCACCCAUGUAGAAGGACCAAUAG [Mat - Exclusion 2 - Mod of my Tesla design - D40] (puzzle: Exclusion 2)")
"Not fulfilled"
>>> class_name("UCCCUGUCAGGAUAUACAUGAGGAUCACCCAUGUCUCUCCGACACGGGAAAAGGAACUGUAGAAGGGACAGGAU [Xezaeseris] (puzzle: Exclusion 3)")
"Not fulfilled"
>>> class_name("CCUCAACAGUAGGAUAUCAUCAAACUAUUGUGAUGAGAAGGACUGACAUGAGGAUCACCCAUGUUAACGUGAUA [Exclusion 6 - 6:a] (puzzle: Exclusion 6)")
"Fulfilled"

###

- System: MS2 coat protein
- protocol_details: apparent KD of MS2 coat protein; designed switch direction (-1 OFF switch, 1 ON switch): -1; higher = weaker reporter binding
- experimental_context: Eterna round: R95; input ligand: none
observable: apparent KD of MS2 coat protein (nM)

>>> observed("CGAAAUGCCCGUGGCCACAAGCUUUUUGCUUGUCUUACUACAUGAGGAUCACCCAUGUACCAUGGGCUCCUGACCAU [Rixele] (puzzle: Sensor v3, turn-off variant 2)")
11.2
>>> observed("AACAAACAUGAGGAUCACCCAUGUGAGGAUAUGCAACAAAACAAAACAAAACAAAACAGCAGAAGGCACACAAC [A-G Solution By Eric] (puzzle: Exclusion 1)")
14.6
>>> observed("UUUAAUUUUUUUUUUUUACAAGCUUUUUGCUCGUCUUAUACAUGAGGAUCACCCAUGUAGGUGAGAGAUAAAUUAUC [JMF 15] (puzzle: Sensor v3, turn-off variant 2)")
24.4

###

- System: MS2 coat protein
- protocol_details: apparent KD of MS2 coat protein; designed switch direction (-1 OFF switch, 1 ON switch): 1; higher = weaker reporter binding
- experimental_context: Eterna round: R98; input ligand: FMN 200 uM
The threshold is inclusive: apparent KD of MS2 coat protein of exactly 20 nM counts as true (1); values below receive false (0).

>>> class_name("AAUAAUCAGGUAGGAUAUGCUCAGGAAUACUGAGCAGAAGGACUAGAAACCUGAGGAUCACCCAGGUAACUGGACCGGAAACGG [Same State NG1 - A3C, U17G Submission 6C]")
"true (1)"
>>> class_name("ACGUCCCGCAGAGGAUAUGUUGUUCGGCCUACAUGAGGAUCACCCAUGUCAAAGGGCUGAUCCCGACAGAAGGCUGAAGGAUAC [Qudiator]")
"true (1)"
>>> class_name("CCCUUCAGAAGAGGGACAUGAGGAUCACCCAUGUAGGCUGCACAGGAUAUCGAUCGGAGGCGGUACGAGAAGGGUGAUGUCAUU [Riorrebi]")
"true (1)"
>>> class_name("GCAGAAGGUGCGGAGGAUCACCCUGUAAGGAUAUGCAUUAGCAAGGAUAUACAGAGGAUCACCCUGUAGAAGGUGCACUUCUGA [pwkr2 ssNG3 DX.8]")
"true (1)"
>>> class_name("CACAGGGAUUCAGGAUAUAUUAGCCGAGGCCGCGUAGAAGGGAAAUCCUGACAUGAGGAUCACCCAUGUUAACCCACCUUCCAU [Fingerlickinggood#3]")
"true (1)"
>>> class_name("GCUUGCGACGCAGGAUAUGGGUGCCUAAACACGAGGAUCACCCGUGUACAGGAAGCUAAAUGCUCUCAGAAGGGCGUCGCAGGC [United States 9 - Jieux - Same State NG 2]")
"false (0)"
